Test system: Mus musculus
Experiment: Neurotoxicity against mouse at 100 mg/kg, ip after 4 hrs by rotarod ataxia test
Assay type: toxicity, organism-based
Parameters: dose 100 mg/kg, route intraperitoneal
Conditions: in vivo

smiles.representation: COc1ccccc1Oc1ccc2nncn2n1
experimental.target: Mus musculus
Activity: Non-toxic
//
smiles.representation: COc1ccc(Oc2ccc3nncn3n2)cc1
experimental.target: Mus musculus
Activity: Non-toxic
//
smiles.representation: CCCCOc1ccc2nncn2n1
experimental.target: Mus musculus
Activity: Non-toxic
//
smiles.representation: Cc1ccc(Oc2ccc3nncn3n2)cc1
experimental.target: Mus musculus
Activity: Non-toxic
//
smiles.representation: CCCCCCCCCOc1ccc2nncn2n1
experimental.target: Mus musculus
Activity: Non-toxic
//
smiles.representation: Brc1ccc(Oc2ccc3nncn3n2)cc1
experimental.target: Mus musculus
Activity: Non-toxic
//
smiles.representation: O=c1ccc(Oc2ccccc2)n[nH]1
experimental.target: Mus musculus
Activity: Non-toxic
//
smiles.representation: CCCCCCCCCCOc1ccc2nncn2n1
experimental.target: Mus musculus
Activity: Non-toxic
//
smiles.representation: Clc1ccccc1Oc1ccc2nncn2n1
experimental.target: Mus musculus
Activity: Non-toxic
//
smiles.representation: Cc1cccc(Oc2ccc3nncn3n2)c1
experimental.target: Mus musculus
Activity: Non-toxic
//
smiles.representation: Cc1ccccc1Oc1ccc2nncn2n1
experimental.target: Mus musculus
Activity: Non-toxic
//
smiles.representation: CCCCCCCCOc1ccc2nncn2n1
experimental.target: Mus musculus
Activity: Non-toxic

---

Tested on: Mus musculus
Test: Neurotoxicity against mouse at 30 mg/kg, ip after 0.5 hrs by rotarod ataxia test
Format: toxicity, organism-based
Design: dose 30 mg/kg, route intraperitoneal
Conditions: in vivo

smiles.representation: CCCCCCOc1ccc2nncn2n1
Activity: Toxic
--
smiles.representation: Fc1ccc(Oc2ccc3nncn3n2)cc1
Activity: Non-toxic
--
smiles.representation: CCCCCOc1ccc2nncn2n1
Activity: Toxic
--
smiles.representation: Clc1ccc(Oc2ccc3nncn3n2)cc1
Activity: Non-toxic
--
smiles.representation: CCCCCCCOc1ccc2nncn2n1
Activity: Toxic
--
smiles.representation: Clc1cccc(Oc2ccc3nncn3n2)c1
Activity: Non-toxic
--
smiles.representation: Clc1ccc(Oc2ccc3nncn3n2)c(Cl)c1
Activity: Non-toxic

---

Test: Neurotoxicity against ip dosed mouse by rotarod ataxia test
Type: toxicity, organism-based
Settings: in vivo
# TD50 listing for each entry below

smiles.representation: Clc1cccc(Oc2ccc3nncn3n2)c1
unit.name: mg/kg
TD50: 228

smiles.representation: CCCCCCOc1ccc2nncn2n1
unit.name: mg/kg
TD50: 60.8

smiles.representation: Cc1ccccc1Oc1ccc2nncn2n1
unit.name: mg/kg
TD50: 220

smiles.representation: O=c1ccc(Oc2ccccc2)n[nH]1
unit.name: mg/kg
TD50: 274

smiles.representation: Clc1ccccc1Oc1ccc2nncn2n1
unit.name: mg/kg
TD50: 190

smiles.representation: Brc1ccc(Oc2ccc3nncn3n2)cc1
unit.name: mg/kg
TD50: 329

smiles.representation: Clc1ccc(Oc2ccc3nncn3n2)c(Cl)c1
unit.name: mg/kg
TD50: 380

smiles.representation: CCCCCCCOc1ccc2nncn2n1
unit.name: mg/kg
TD50: 73

smiles.representation: CCCCCOc1ccc2nncn2n1
unit.name: mg/kg
TD50: 70.4

smiles.representation: Fc1ccc(Oc2ccc3nncn3n2)cc1
unit.name: mg/kg
TD50: 317

smiles.representation: Clc1ccc(Oc2ccc3nncn3n2)cc1
unit.name: mg/kg
TD50: 394

---

Assay: Neurotoxicity against po dosed mouse by rotarod ataxia test
Assay type: toxicity, organism-based
Details: in vivo
reported.metric: TD50 (mg/kg)

smiles.representation: Clc1ccc(Oc2ccc3nncn3n2)c(Cl)c1
reported.metric: TD50
reported.result: 546

---

System: Mus musculus
Test: Neurotoxicity against mouse at 100 mg/kg, ip after 0.5 hrs by rotarod ataxia test
Assay type: toxicity, organism-based
Design: dose 100 mg/kg, route intraperitoneal
Settings: in vivo

smiles.representation: CCCCCCCCOc1ccc2nncn2n1
Activity: Toxic
--
smiles.representation: Brc1ccc(Oc2ccc3nncn3n2)cc1
Activity: Non-toxic
--
smiles.representation: CCCCCCCCCCOc1ccc2nncn2n1
Activity: Toxic
--
smiles.representation: Cc1ccccc1Oc1ccc2nncn2n1
Activity: Non-toxic
--
smiles.representation: CCCCCCCCCOc1ccc2nncn2n1
Activity: Toxic
--
smiles.representation: COc1ccccc1Oc1ccc2nncn2n1
Activity: Non-toxic
--
smiles.representation: Cc1cccc(Oc2ccc3nncn3n2)c1
Activity: Non-toxic
--
smiles.representation: Cc1ccc(Oc2ccc3nncn3n2)cc1
Activity: Non-toxic
--
smiles.representation: COc1ccc(Oc2ccc3nncn3n2)cc1
Activity: Non-toxic
--
smiles.representation: CCCCOc1ccc2nncn2n1
Activity: Toxic
--
smiles.representation: Clc1ccccc1Oc1ccc2nncn2n1
Activity: Non-toxic

Cited source for all entries: ChEMBL document CHEMBL1157843
